system: C. neoformans (2.3201); experiment: Antifungal activity, broth microdilution; type: cell-based; conditions: Cryptococcus neoformans; C. neoformans 2.3201; read-out: MIC
Please respond with Criterion met when measured MIC is strictly beneath 20 µg/mL, and with Criterion not met in all other cases.

COMPOUND: O=C1CSC(c2c[n+]([O-])c3ccccc3[n+]2[O-])N1C1CC1 (centres unmarked)
CATEGORY LABEL: Criterion not met

COMPOUND: C[C@@H]1[C@H](O)[C@@H](C)/C=C/C=C/C=C/C=C/C=C/C=C/C=C/[C@H](O[C@@H]2O[C@H](C)[C@@H](O)[C@H](N)[C@@H]2O)C[C@@H]2O[C@](O)(C[C@@H](O)C[C@@H](O)[C@H](O)CC[C@@H](O)C[C@@H](O)CC(=O)O[C@H]1C)C[C@H](O)[C@H]2C(=O)O [AMB, Amphotericin b, reference compound]
CATEGORY LABEL: Criterion met

COMPOUND: COc1ccc(N2C(=O)CSC2c2c[n+]([O-])c3ccc(F)cc3[n+]2[O-])cc1 (centres unmarked)
CATEGORY LABEL: Criterion met

COMPOUND: O=C1CSC(c2c[n+]([O-])c3ccccc3[n+]2[O-])N1c1ccc(F)cc1 (centres unmarked)
CATEGORY LABEL: Criterion met

COMPOUND: O=C1CSC(c2c[n+]([O-])c3ccc(F)cc3[n+]2[O-])N1c1ccc(F)cc1 (centres unmarked)
CATEGORY LABEL: Criterion met

COMPOUND: Cc1ccc(N2C(=O)CSC2c2c[n+]([O-])c3ccc(C)cc3[n+]2[O-])cc1 (centres unmarked)
CATEGORY LABEL: Criterion not met

COMPOUND: O=C1CSC(c2c[n+]([O-])c3ccc(F)cc3[n+]2[O-])N1c1ccccc1 (centres unmarked)
CATEGORY LABEL: Criterion met

COMPOUND: Cc1ccc(N2C(=O)CSC2c2c[n+]([O-])c3ccccc3[n+]2[O-])cc1 (centres unmarked)
CATEGORY LABEL: Criterion not met

---

test system: C. tropicalis (ATCC7349); test: Antifungal activity, broth microdilution; assay type: cell-based; conditions: Candida tropicalis, C. tropicalis ATCC 7349, read-out: MIC
Please respond with rule met when measured MIC is strictly beneath 20 µg/mL, and with rule not met in all other cases.

COMPOUND: COc1ccc2c(c1)[n+]([O-])c(C1SCC(=O)N1c1ccc(Cl)cc1)c[n+]2[O-] (stereo not drawn)
CATEGORY LABEL: rule not met
//
COMPOUND: O=C1CSC(c2c[n+]([O-])c3ccc(F)cc3[n+]2[O-])N1c1ccccc1 (stereo not drawn)
CATEGORY LABEL: rule met
//
COMPOUND: Cc1ccc2c(c1)[n+]([O-])c(C1SCC(=O)N1c1ccc(Cl)cc1)c[n+]2[O-] (stereo not drawn)
CATEGORY LABEL: rule met
//
COMPOUND: O=C1CSC(c2c[n+]([O-])c3ccc(Cl)cc3[n+]2[O-])N1c1ccccc1 (stereo not drawn)
CATEGORY LABEL: rule met
//
COMPOUND: Cc1ccc(N2C(=O)CSC2c2c[n+]([O-])c3ccc(C)cc3[n+]2[O-])cc1 (stereo not drawn)
CATEGORY LABEL: rule met
//
COMPOUND: COc1ccc2c(c1)[n+]([O-])c(C1SCC(=O)N1c1ccc(F)cc1)c[n+]2[O-] (stereo not drawn)
CATEGORY LABEL: rule not met
//
COMPOUND: Cc1ccc(N2C(=O)CSC2c2c[n+]([O-])c3ccccc3[n+]2[O-])cc1 (stereo not drawn)
CATEGORY LABEL: rule met
//
COMPOUND: COc1ccc(N2C(=O)CSC2c2c[n+]([O-])c3ccc(C)cc3[n+]2[O-])cc1 (stereo not drawn)
CATEGORY LABEL: rule not met
//
COMPOUND: COc1ccc2c(c1)[n+]([O-])c(C1SCC(=O)N1c1ccc(C)cc1)c[n+]2[O-] (stereo not drawn)
CATEGORY LABEL: rule not met

---

Parameter: log10 of MIC. Scope: all listed entries.
system: C. tropicalis (ATCC7349); experiment: Antifungal activity, broth microdilution; format: cell-based; settings: Candida tropicalis, C. tropicalis ATCC 7349, read-out: MIC
OBSERVATION TYPE: log10 of MIC (log10 of the value in µg/mL)

COMPOUND: COc1ccc2c(c1)[n+]([O-])c(C1SCC(=O)N1c1ccccc1)c[n+]2[O-] (stereo not drawn)
TARGET UNDER TEST: C. tropicalis (ATCC7349)
log10 of MIC: 1.51
//
COMPOUND: O=C1CSC(c2c[n+]([O-])c3ccccc3[n+]2[O-])N1c1ccc(Cl)cc1 (stereo not drawn)
TARGET UNDER TEST: C. tropicalis (ATCC7349)
log10 of MIC: 0.90
//
COMPOUND: Cc1ccc(N2C(=O)CSC2c2c[n+]([O-])c3ccc(F)cc3[n+]2[O-])cc1 (stereo not drawn)
TARGET UNDER TEST: C. tropicalis (ATCC7349)
log10 of MIC: 0.90
//
COMPOUND: Cc1ccc(N2C(=O)CSC2c2c[n+]([O-])c3ccc(Cl)cc3[n+]2[O-])cc1 (stereo not drawn)
TARGET UNDER TEST: C. tropicalis (ATCC7349)
log10 of MIC: 0.60
//
COMPOUND: O=C1CSC(c2c[n+]([O-])c3ccc(F)cc3[n+]2[O-])N1c1ccc(F)cc1 (stereo not drawn)
TARGET UNDER TEST: C. tropicalis (ATCC7349)
log10 of MIC: 0.30
//
COMPOUND: Cc1ccc2c(c1)[n+]([O-])c(C1SCC(=O)N1c1ccccc1)c[n+]2[O-] (stereo not drawn)
TARGET UNDER TEST: C. tropicalis (ATCC7349)
log10 of MIC: 1.20
//
COMPOUND: O=C1CSC(c2c[n+]([O-])c3ccc(Cl)cc3[n+]2[O-])N1c1ccc(F)cc1 (stereo not drawn)
TARGET UNDER TEST: C. tropicalis (ATCC7349)
log10 of MIC: 0.60
//
COMPOUND: Cc1ccc2c(c1)[n+]([O-])c(C1SCC(=O)N1c1ccc(F)cc1)c[n+]2[O-] (stereo not drawn)
TARGET UNDER TEST: C. tropicalis (ATCC7349)
log10 of MIC: 0.90
//
COMPOUND: COc1ccc(N2C(=O)CSC2c2c[n+]([O-])c3ccccc3[n+]2[O-])cc1 (stereo not drawn)
TARGET UNDER TEST: C. tropicalis (ATCC7349)
log10 of MIC: 1.51
//
COMPOUND: COc1ccc(N2C(=O)CSC2c2c[n+]([O-])c3ccc(Cl)cc3[n+]2[O-])cc1 (stereo not drawn)
TARGET UNDER TEST: C. tropicalis (ATCC7349)
log10 of MIC: 0.90
//
COMPOUND: O=C1CSC(c2c[n+]([O-])c3ccccc3[n+]2[O-])N1c1ccc(F)cc1 (stereo not drawn)
TARGET UNDER TEST: C. tropicalis (ATCC7349)
log10 of MIC: 0.90
//
COMPOUND: O=C1CSC(c2c[n+]([O-])c3ccc(Cl)cc3[n+]2[O-])N1c1ccc(Cl)cc1 (stereo not drawn)
TARGET UNDER TEST: C. tropicalis (ATCC7349)
log10 of MIC: 0.60
//
COMPOUND: O=C1CSC(c2c[n+]([O-])c3ccccc3[n+]2[O-])N1c1ccccc1 (stereo not drawn)
TARGET UNDER TEST: C. tropicalis (ATCC7349)
log10 of MIC: 0.90
//
COMPOUND: O=C1CSC(c2c[n+]([O-])c3ccc(F)cc3[n+]2[O-])N1c1ccc(Cl)cc1 (stereo not drawn)
TARGET UNDER TEST: C. tropicalis (ATCC7349)
log10 of MIC: 0.60
//
COMPOUND: O=C1CSC(c2c[n+]([O-])c3ccccc3[n+]2[O-])N1C1CC1 (stereo not drawn)
TARGET UNDER TEST: C. tropicalis (ATCC7349)
log10 of MIC: 1.20
//
COMPOUND: COc1ccc(N2C(=O)CSC2c2c[n+]([O-])c3ccc(F)cc3[n+]2[O-])cc1 (stereo not drawn)
TARGET UNDER TEST: C. tropicalis (ATCC7349)
log10 of MIC: 0.90
//
COMPOUND: COc1ccc(N2C(=O)CSC2c2c[n+]([O-])c3ccc(OC)cc3[n+]2[O-])cc1 (stereo not drawn)
TARGET UNDER TEST: C. tropicalis (ATCC7349)
log10 of MIC: 1.81
//
COMPOUND: C[C@@H]1[C@H](O)[C@@H](C)/C=C/C=C/C=C/C=C/C=C/C=C/C=C/[C@H](O[C@@H]2O[C@H](C)[C@@H](O)[C@H](N)[C@@H]2O)C[C@@H]2O[C@](O)(C[C@@H](O)C[C@@H](O)[C@H](O)CC[C@@H](O)C[C@@H](O)CC(=O)O[C@H]1C)C[C@H](O)[C@H]2C(=O)O [AMB, Amphotericin b, reference compound]
TARGET UNDER TEST: C. tropicalis (ATCC7349)
log10 of MIC: 0.30
